From: patent US11970474B2

system: Rec1; assay: Cell viability assay (resazurin); type: cell-based; settings: Homo sapiens, 120 h, Cancer, Mantle Cell Lymphoma, five day incubation
Experimental Endpoint: EC50 (µM)
Expressed in µM, but write only the number.

Worked cases, answers included:
                                   compound  experimental_target  experimental_endpoint  unit_label  meas_value
0  Cc1cc(NC(=O)N2CCC(n3c(=O)[nH]c4c(Br)cccc43)CC2)ccc1I [Example 50]                 Rec1                   EC50          µM          15
1  O=C(Nc1ccc(Cl)c(Cl)c1)N1CCC(n2c(=O)[nH]c3c(-c4ccc(CO)nc4)cccc32)CC1 [Example 28]                 Rec1                   EC50          µM          13

Now for another entry.
Ask: Suppose we examine the compound O=C(Nc1ccc(I)cc1)N1CCC(n2c(=O)[nH]c3c(Br)cccc32)CC1 [Example 13] ; what EC50 value has been reported?
Result: 14

---

tested on: CCD841; test: Cell viability assay (resazurin); assay type: cell-based; settings: CCD-841, 120 h, Normal, fetal epithelial colon, five day incubation
Experimental Endpoint: EC50 (µM)
Expressed in µM, but write only the number.

Worked cases, answers included:
In [3]: df
Out[3]:
                                smiles_repr  experimental_endpoint  meas_value
0  O=C(Nc1ccc(Cl)c(Cl)c1)N1CCC(n2c(=O)[nH]c3c(-c4ccc(CO)nc4)cccc32)CC1                   EC50          40
1  O=C(Nc1ccc(I)cc1)N1CCC(n2c(=O)[nH]c3c(Br)cccc32)CC1                   EC50          43

Now for another entry.
Ask: Suppose we examine the molecule `Cc1cc(NC(=O)N2CCC(n3c(=O)[nH]c4c(Br)cccc43)CC2)ccc1I` ; what EC50 value has been reported?
Result: 54

---

tested on: MLE12 cells; assay: Cell viability assay in MLE12 cells (resazurin); type: cell-based, mouse; conditions: TNF-α 20 ng/ml, resazurin added after 24 hours culture
The reader will find reported IC50 values listed item by item below.
Expressed in µM, but write only the number.

>>> df
                                   molecule  meas_value
0  COc1cc(NC(=O)[C@H]2CC[C@@H](n3c(=O)[nH]c4c(N(C)CCN(C)C)cccc43)CC2)ccc1C [Example 229]        6.67

Ask: Suppose we examine the molecule COc1cc(NC(=O)[C@H]2CC[C@@H](n3c(=O)[nH]c4c(C(=O)NCCN(C)C)cccc43)CC2)ccc1C [Example 228] ; what IC50 value has been reported?
Result: 10.5

Ask: Consider next the molecule COc1cc(NC(=O)[C@H]2CC[C@@H](n3c(=O)[nH]c4c(Br)cccc43)CC2)ccc1C [Example 107] in the same way.
Result: 7.4

Ask: Consider next the molecule COc1cc(NC(=O)N2CCC(n3c(=O)[nH]c4c(Br)cccc43)CC2)ccc1C [Example 75] in the same way.
Result: 12.8
